system: PfAP2-LT AP2 domain (GST-tagged); experiment: gcPBM binding intensity (ln(normalized median fluorescence intensity)); higher = stronger DNA binding
The full ranking holds about 25,000 sequences; the median of “ln(normalized median fluorescence intensity)” is about 8.9, and the highest 2% start at about 10. The sample holds the highest values, similar sequences and a random draw of the others, so the mix is not that of the screen.
gcPBM binding intensity (ln) listing for selected sequences.
RECORDED_ENDPOINT: gcPBM binding intensity (ln)

[[record]]
residues = "ATATATAAAATTATATGTACATATATAATATATATA [XGTACX_site529]"
system = "PfAP2-LT AP2 domain (GST-tagged)"
measured_number = 8.77

[[record]]
residues = "AATGGTCTTTTCAACACACGTACATAAAAATATTAT [CACACA_site2571]"
system = "PfAP2-LT AP2 domain (GST-tagged)"
measured_number = 8.79

[[record]]
residues = "TTACAAAAAAATAATTGTACATACAATTTCTGTTAT [XGTACX_site877]"
system = "PfAP2-LT AP2 domain (GST-tagged)"
measured_number = 8.71

[[record]]
residues = "GATATAAACGTATATGTACATATATATATATATATA [GTGCAC_negctrl_site186]"
system = "PfAP2-LT AP2 domain (GST-tagged)"
measured_number = 10.1

[[record]]
residues = "CCCATGTAATATTAAACACACACTCATATAACACAA [CACACA_site7906]"
system = "PfAP2-LT AP2 domain (GST-tagged)"
measured_number = 9.36

[[record]]
residues = "TTATAAATTCAATGTACTACACAAAATGAATTTAAT [XGTACX_site6683]"
system = "PfAP2-LT AP2 domain (GST-tagged)"
measured_number = 8.53

[[record]]
residues = "CTTGTCATTTTGCACACACACATGTATAGGTTATTA [CACACA_site7431]"
system = "PfAP2-LT AP2 domain (GST-tagged)"
measured_number = 9.67

[[record]]
residues = "TACACAAATATATATATATATATATATATATATATA [XGTACX_negctrl_site305]"
system = "PfAP2-LT AP2 domain (GST-tagged)"
measured_number = 10

[[record]]
residues = "CCCCATATAATGAACACACACACTCCTCATAATTAA [CACACA_site628]"
system = "PfAP2-LT AP2 domain (GST-tagged)"
measured_number = 10.3

[[record]]
residues = "CATCACCTTTTTAAATGTACGCATAATACCAAAAAA [XGTACX_site1587]"
system = "PfAP2-LT AP2 domain (GST-tagged)"
measured_number = 8.6

[[record]]
residues = "ATAAAAATAAAAAGTGTGCACACAAAAATATATATA [GTGCAC_site9931]"
system = "PfAP2-LT AP2 domain (GST-tagged)"
measured_number = 9.62

[[record]]
residues = "ATTCAAAAGATGTATACACACATGTGGATAATATAA [CACACA_site2443]"
system = "PfAP2-LT AP2 domain (GST-tagged)"
measured_number = 9.21

[[record]]
residues = "TTTCCCCCATATAATGAACACACACCCTCCTCATAA [CACACA_site8110]"
system = "PfAP2-LT AP2 domain (GST-tagged)"
measured_number = 9.84

[[record]]
residues = "ATCATAATTTATTATACACACAATACGTGACCTATT [CACACA_site6977]"
system = "PfAP2-LT AP2 domain (GST-tagged)"
measured_number = 9.24

[[record]]
residues = "ATGTTATATTTTTTTATACACACTGGAATATATAAA [CACACA_site215]"
system = "PfAP2-LT AP2 domain (GST-tagged)"
measured_number = 8.64

[[record]]
residues = "TTTGTTTTTAATTTCGCACACACCTTGTGGAAAAAA [CACACA_site577]"
system = "PfAP2-LT AP2 domain (GST-tagged)"
measured_number = 8.98

[[record]]
residues = "ACAAGGAATATATAAGATAATTTTAAATATAACACG [CACACA_negctrl_site1734]"
system = "PfAP2-LT AP2 domain (GST-tagged)"
measured_number = 8.73

[[record]]
residues = "ATGAGTGCACAAATATATATATATATATATATATAT [CACACA_negctrl_site404]"
system = "PfAP2-LT AP2 domain (GST-tagged)"
measured_number = 10.2

[[record]]
residues = "TATATATATATATAATGTACAAACTCCTTTATATAT [XGTACX_site4545]"
system = "PfAP2-LT AP2 domain (GST-tagged)"
measured_number = 9.05

